test system: SCID mice bearing twin HEK293-CCK2i4svR and wtHEK293 tumors; experiment: Biodistribution in SCID mice bearing twin HEK293-CCK2i4svR and wtHEK293 xenografts; type: in vivo; conditions: 24 h pi
readout: Biodistribution, Blood (%IA/g)
The reply should contain only the number, in %IA/g.

stdin: Read off the recorded Biodistribution, Blood for CC(C)(C)C(=O)CN1C(=O)[C@H](NC(=O)Nc2cccc(C(=O)NCCOCCOCCOCCNC(=O)[C@H](CCC(=O)O)NC(=O)CCC(C(=O)O)N3CCN(CC(=O)[O-])CCN(CC(=O)[O-])CCN(CC(=O)[O-])CC3)c2)CN(C2CCCCC2)c2ccccc21.[67Ga+3] (stereo in doubt) [[^67Ga]Ga-GAS3]
stdout: 0.14

stdin: Read off the recorded Biodistribution, Blood for CC(C)(C)C(=O)CN1C(=O)[C@H](NC(=O)Nc2cccc(C(=O)NCCOCCOCCOCCNC(=O)[C@H](CCC(=O)O)NC(=O)CCC(C(=O)O)N3CCN(CC(=O)[O-])CCN(CC(=O)[O-])CCN(CC(=O)[O-])CC3)c2)CN(C2CCCCC2)c2ccccc21.[177Lu+3] (stereo in doubt) [[^177Lu]Lu-GAS3]
stdout: 0.07

stdin: Read off the recorded Biodistribution, Blood for CC(C)(C)C(=O)CN1C(=O)[C@H](NC(=O)Nc2cccc(C(=O)NCCOCCOCCOCCNC(=O)[C@H](CCC(=O)O)NC(=O)CCC(C(=O)[O-])N3CCN(CC(=O)[O-])CCN(CC(=O)[O-])CC3)c2)CN(C2CCCCC2)c2ccccc21.[67Ga+3] (stereo in doubt) [[^67Ga]Ga-GAS2]
stdout: 0.05

stdin: Read off the recorded Biodistribution, Blood for CC(C)(C)C(=O)CN1C(=O)[C@H](NC(=O)Nc2cccc(C(=O)NCCOCCOCCOCCNC(=O)[C@@H](CCC(=O)O)NC(=O)CCC(C(=O)[O-])N3CCN(CC(=O)[O-])CCN(CC(=O)[O-])CC3)c2)CN(C2CCCCC2)c2ccccc21.[111In+3] (stereo partly shown) [[^111In]In-GAS2]
stdout: 0.13

* * *

system: SCID mice bearing twin HEK293-CCK2i4svR and wtHEK293 tumors; assay: Biodistribution in SCID mice bearing twin HEK293-CCK2i4svR and wtHEK293 xenografts; type: in vivo; details: 4 h pi
readout: Biodistribution, Intestines (%IA/g)
The reply should contain only the number, in %IA/g.

stdin: Read off the recorded Biodistribution, Intestines for CC(C)(C)C(=O)CN1C(=O)[C@H](NC(=O)Nc2cccc(C(=O)NCCOCCOCCOCCNC(=O)[C@H](CCC(=O)O)NC(=O)CN3CCN(CC(=O)[O-])CCN(CC(=O)[O-])CCN(CC(=O)[O-])CC3)c2)CN(C2CCCCC2)c2ccccc21.[111In+3] (stereo in doubt) [[^111In]In-GAS1]
stdout: 3.37

stdin: Read off the recorded Biodistribution, Intestines for CC(C)(C)C(=O)CN1C(=O)[C@H](NC(=O)Nc2cccc(C(=O)NCCOCCOCCOCCNC(=O)[C@H](CCC(=O)O)NC(=O)CN3CCN(CC(=O)[O-])CCN(CC(=O)[O-])CCN(CC(=O)[O-])CC3)c2)CN(C2CCCCC2)c2ccccc21.[177Lu+3] (stereo in doubt) [[^177Lu]Lu-GAS1]
stdout: 1.65

Entry source: paper PMC8954547
